As shown below, each of these molecules has a reported pIC50 value.
system: 17D strain YFV virus; test: microbe, parasite or virus in culture; format: cell-based, Yellow Fever (YFV); conditions: Yellow fever virus, HeLa, 168 h, read-out: Anti-Yellow Fever Activity IC50
pIC50 is defined as minus the log10 of a concentration measured in mol/L.

N#Cc1cccc(B2OCc3cc(F)ccc32)c1
5.79
Clc1ccc(B2OCc3ccccc32)cc1
5.81
Fc1cccc(B2OCc3cc(Cl)ccc32)c1
5.86

Q. Need pIC50 of N#Cc1ccc(B2OCc3ccccc32)cc1 , thanks.
A. 6.13

Q. Same question for N#Cc1cccc(B2OCc3ccc(F)cc32)c1 please.
A. 5.63

Q. Same question for N#Cc1cccc(B2OCc3ccccc32)c1 please.
A. 6.36

Q. Same question for Fc1ccc2c(c1)B(c1cccc(Cl)c1)OC2 please.
A. 5.92

Q. Same question for Fc1ccc2c(c1)COB2c1cccc(Cl)c1 please.
A. 6.19

* * *

assay: in vitro; settings: human
Param label: returns rule met when CC50 at 7 day < 7 µM, returns rule not met otherwise, including exact equality.

N#Cc1ccc(B2OCc3cc(F)ccc32)cc1 [Compound 19]
rule not met

API: the following record is the query input.
Q. Take the molecule N#Cc1cccc(B2OCc3ccccc32)c1 [Compound 14] and say whether its CC50 at 7 day is less than 7 µM.
A. rule met

* * *

test system: S. faecium CT-26
As shown below, each of these compounds has a reported MIC value.
Express the result in µg/mL but write the number alone.

Check out these entries, answers already filled in.
N#Cc1cccc(B2OCc3cc(F)ccc32)c1 [Compound 20]
64
Clc1cccc(B2OCc3ccccc32)c1 [Compound 12]
16
NCc1ccc(B2OCc3cc(F)ccc32)cc1 [Compound 23]
16
N#Cc1cccc(B2OCc3ccccc32)c1 [Compound 14]
16
CO/N=C(\C(=O)N[C@@H]1C(=O)N2C(C(=O)O)=C(CSc3nc(=O)c(=O)[nH]n3C)CS[C@H]12)c1csc(N)n1 [Ceftriaxone, reference compound]
64
NCc1cccc(B2OCc3cc(F)ccc32)c1 [Compound 24]
32

Next compound, MIC to be filled in.
Q. Need MIC of N#Cc1cccc(B2OCc3ccc(F)cc32)c1 [Compound 21] , thanks.
A. 64

* * *

Lab note: MIC readings collected with S. faecium CT-26 for the following compounds.
Express the result in µg/mL but write the number alone.

Fc1ccc2c(c1)B(c1cccc(Cl)c1)OC2 [Compound 15]
8

Q. Need MIC of CC1(C)OB(c2cccc(Cl)c2)c2ccccc21 [Compound 16] , thanks.
A. 16

Q. Same question for N#Cc1ccc(B2OCc3ccccc32)cc1 [Compound 18] please.
A. 32

* * *

assay: Cytotoxicity in HCV RNA replicon assay; details: human, ET cell line (luc-ubi-neo/ET)
As shown below, each of these compounds has a reported CC50 at 72 hr value.
Express the result in nM but write the number alone.

Check out these entries, answers already filled in.
N#Cc1ccc(B2OCc3cc(F)ccc32)cc1
270
Clc1cccc(B2OCc3ccccc32)c1
12700
Fc1ccc2c(c1)COB2c1cccc(Cl)c1
1290
N#Cc1cccc(B2OCc3cc(F)ccc32)c1
5990
N#Cc1cccc(B2OCc3ccc(F)cc32)c1
690
Fc1ccc2c(c1)B(c1cccc(Cl)c1)OC2
540
Clc1ccc(B2OCc3ccccc32)cc1
260
N#Cc1cccc(B2OCc3ccccc32)c1
1140

Next compound, CC50 at 72 hr to be filled in.
Q. Need CC50 at 72 hr of Fc1cccc(B2OCc3cc(Cl)ccc32)c1 , thanks.
A. 370

* * *

As shown below, each of these compounds has a reported CC50 at 7 day value.
test: in vitro; settings: human
Express the result in µM but write the number alone.

Check out these entries, answers already filled in.
N#Cc1cccc(B2OCc3ccc(F)cc32)c1
15.8
N#Cc1ccc(B2OCc3ccccc32)cc1
6.6
N#Cc1cccc(B2OCc3cc(F)ccc32)c1
21
Clc1ccc(B2OCc3ccccc32)cc1
6.42
Fc1ccc2c(c1)B(c1cccc(Cl)c1)OC2
6.6
Fc1cccc(B2OCc3cc(Cl)ccc32)c1
6.22

Q. Need CC50 at 7 day of Fc1ccc2c(c1)COB2c1cccc(Cl)c1 , thanks.
A. 4.14

* * *

Lab note: MIC readings collected with S. faecium CT-26 for the following compounds.
Express the result in µg/mL but write the number alone.

Fc1cccc(B2OCc3cc(Cl)ccc32)c1
8

Q. Need MIC of Clc1ccc(B2OCc3ccccc32)cc1 , thanks.
A. 16

Q. Same question for Cc1onc(-c2ccccc2Cl)c1C(=O)N[C@@H]1C(=O)N2[C@@H]1SC(C)(C)[C@@H]2C(=O)O [Cloxacillin, reference compound] please.
A. 64

Q. Same question for Fc1ccc2c(c1)COB2c1cccc(Cl)c1 please.
A. 32

Q. Same question for C[C@@H](O)[C@H]1C(=O)N2C(C(=O)O)=C(SCCN=CN)C[C@H]12 [Imipenem, reference compound] please.
A. 64
